Target: HiBit-BRG1 fusion protein in stable HeLa cell line expressing HiBit-BRG1 and LgBit (Homo sapiens)
Construct: expressed in transfected cells
Sequence (P51532 whole entry, the tested form may be a part): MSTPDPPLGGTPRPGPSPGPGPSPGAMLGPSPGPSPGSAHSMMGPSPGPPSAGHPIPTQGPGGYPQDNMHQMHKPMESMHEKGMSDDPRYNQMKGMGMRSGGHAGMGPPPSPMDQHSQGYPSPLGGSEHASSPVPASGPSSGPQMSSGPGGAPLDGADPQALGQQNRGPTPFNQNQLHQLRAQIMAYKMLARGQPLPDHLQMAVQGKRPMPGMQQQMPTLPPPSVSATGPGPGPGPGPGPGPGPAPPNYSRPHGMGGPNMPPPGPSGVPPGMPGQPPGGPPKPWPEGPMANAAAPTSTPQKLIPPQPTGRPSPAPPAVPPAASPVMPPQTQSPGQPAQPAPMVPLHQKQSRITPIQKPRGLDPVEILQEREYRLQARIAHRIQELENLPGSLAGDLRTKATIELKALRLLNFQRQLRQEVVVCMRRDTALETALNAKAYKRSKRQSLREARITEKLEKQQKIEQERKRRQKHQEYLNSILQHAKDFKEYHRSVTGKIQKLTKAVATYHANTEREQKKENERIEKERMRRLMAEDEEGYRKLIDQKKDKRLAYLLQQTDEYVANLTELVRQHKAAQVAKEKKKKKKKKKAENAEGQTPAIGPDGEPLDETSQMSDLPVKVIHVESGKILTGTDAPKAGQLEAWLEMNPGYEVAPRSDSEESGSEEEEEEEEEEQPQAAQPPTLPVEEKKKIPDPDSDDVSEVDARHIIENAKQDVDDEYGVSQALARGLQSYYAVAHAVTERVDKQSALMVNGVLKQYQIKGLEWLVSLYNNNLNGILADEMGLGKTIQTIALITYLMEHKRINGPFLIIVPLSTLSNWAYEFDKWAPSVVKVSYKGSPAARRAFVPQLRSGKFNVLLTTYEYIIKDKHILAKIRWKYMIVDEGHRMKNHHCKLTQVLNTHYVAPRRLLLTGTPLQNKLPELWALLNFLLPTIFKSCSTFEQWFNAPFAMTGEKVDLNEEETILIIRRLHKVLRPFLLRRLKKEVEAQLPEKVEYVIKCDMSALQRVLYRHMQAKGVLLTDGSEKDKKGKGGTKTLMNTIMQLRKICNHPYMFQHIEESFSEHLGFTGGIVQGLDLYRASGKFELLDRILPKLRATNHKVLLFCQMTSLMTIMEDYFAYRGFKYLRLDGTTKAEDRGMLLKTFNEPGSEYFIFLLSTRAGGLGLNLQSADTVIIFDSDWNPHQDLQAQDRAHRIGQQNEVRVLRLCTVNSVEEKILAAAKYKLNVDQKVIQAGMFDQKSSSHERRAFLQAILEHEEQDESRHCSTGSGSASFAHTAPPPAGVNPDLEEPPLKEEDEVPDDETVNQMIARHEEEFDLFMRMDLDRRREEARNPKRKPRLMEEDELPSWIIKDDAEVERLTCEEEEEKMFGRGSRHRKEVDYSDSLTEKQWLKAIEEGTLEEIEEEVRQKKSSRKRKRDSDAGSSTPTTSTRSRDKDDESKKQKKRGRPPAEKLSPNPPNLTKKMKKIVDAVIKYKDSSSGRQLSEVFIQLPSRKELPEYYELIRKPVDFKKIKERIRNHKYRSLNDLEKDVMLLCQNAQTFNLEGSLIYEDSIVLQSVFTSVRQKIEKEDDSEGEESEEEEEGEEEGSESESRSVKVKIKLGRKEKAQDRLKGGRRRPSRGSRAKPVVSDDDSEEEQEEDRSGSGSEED
Experiment: HiBiT-BRG1 cell-based degradation assay (Nano-Glo HiBiT, 24 h)
Conditions: HeLa HiBit-BRG1/LgBit cells, read-out: BRMG1 HiBit Degradation IC50
Method: Procedure: A stable HeLa cell line expressing HiBiT-BRM was generated. On day 0, 5000 cells were seeded in 40 μL of media into each well of 384-well cell culture plates. […] The plates were shaken for 10 minutes at room temperature and the bioluminescence read using an EnVision plate reader (PerkinElmer). […] The degradation % was calculated using the following formula: % degradation=100%−100%×(Lumsample−LumLC)/(LumHC−LumLC). […]
reported_metric: DC50

Some solved entries appear below for comparison.
compound	reported_metric	data_value
Cc1ncsc1-c1ccc([C@H](C)NC(=O)[C@@H]2C[C@@H](O)CN2C(=O)C(C(C)C)n2cc(N3CCC(CN4CCN(c5ccc6cc(-c7ccccc7O)nnc6c5)CC4)CC3)nn2)cc1 (stereo partly drawn)	DC50	> 10 nM
C#Cc1ccc(CNC(=O)[C@@H]2C[C@@H](O)CN2C(=O)[C@H](C(C)C)n2cc(N3CC4(CN(c5ccc6cc(-c7ccccc7O)nnc6c5)C4)C3)nn2)c(OCCCOC)c1	DC50	< 10 nM
Cc1ncsc1-c1ccc([C@H](C)NC(=O)[C@@H]2C[C@@H](O)CN2C(=O)[C@@H](c2cc(N3CCC(N4CC(c5ccc6nnc(-c7ccccc7O)cc6c5)C4)CC3)no2)C(C)C)cc1	DC50	< 10 nM
Cc1ncsc1-c1ccc([C@H](C)NC(=O)[C@@H]2C[C@@H](O)CN2C(=O)C(C(C)C)n2cc(N3CCC4(CCCN4c4ccc5cc(-c6ccccc6O)nnc5c4)C3)nn2)cc1 (stereo partly drawn)	DC50	> 100 nM
Cc1ncsc1-c1ccc([C@H](C)NC(=O)[C@@H]2C[C@@H](O)CN2C(=O)C(C(C)C)n2cc(N3CCN(CC4CCN(c5ccc6cc(-c7ccccc7O)nnc6c5)CC4)CC3)nn2)cc1 (stereo partly drawn)	DC50	< 10 nM

Now look at this one.
Query: DC50; subject: Cc1ncsc1-c1ccc([C@H](C)NC(=O)[C@@H]2C[C@@H](O)CN2C(=O)C(c2cc(N3CCC4(CN(c5ccc6cc(-c7ccccc7O)nnc6c5)C4)C(F)(F)C3)no2)C(C)C)cc1 (stereo partly drawn)
> 10 nM

The measurements presented in this section are drawn from patent US20260193264A1.
